Field: pKi. System: D(3) dopamine receptor (Homo sapiens, UniProt P35462). Provenance: assorted publications.
Sequence (P35462 whole entry): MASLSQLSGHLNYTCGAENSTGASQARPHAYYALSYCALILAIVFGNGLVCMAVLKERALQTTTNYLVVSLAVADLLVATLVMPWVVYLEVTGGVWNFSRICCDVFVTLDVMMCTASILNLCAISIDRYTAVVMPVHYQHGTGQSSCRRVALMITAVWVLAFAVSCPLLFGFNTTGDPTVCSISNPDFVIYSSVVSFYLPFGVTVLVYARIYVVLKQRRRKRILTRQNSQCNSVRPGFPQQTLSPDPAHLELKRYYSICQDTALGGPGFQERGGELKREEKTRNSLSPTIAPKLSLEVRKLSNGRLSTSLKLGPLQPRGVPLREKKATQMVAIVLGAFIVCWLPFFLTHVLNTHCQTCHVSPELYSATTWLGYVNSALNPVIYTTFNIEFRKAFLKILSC
Remember, pKi is on a log scale: it is -log10 of the molar concentration.

Solved cases (2 shown):
> print(dat)
                                givensmiles  reportedproperty  datavalue
1  COc1ccccc1N1CCN(CCCCNC(=O)/C=C/c2ccc3ccccc3c2)CC1               pKi       9.17
2  COc1ccccc1N1CCN(CCCc2cn(-c3ccccc3)nn2)CC1               pKi       7.65

// moving on: another record for pKi
API: value(readout= pKi, system= D(3) dopamine receptor (Homo sapiens, UniProt P35462), query= COc1cc2c(cc1O)CN(Cc1ccccc1CNC(=O)c1ccccc1Cl)CC2 )
6.42
